- Target of assay: CDK19/Cyclin C (Homo sapiens)
- Sequence (Q9BWU1 whole entry): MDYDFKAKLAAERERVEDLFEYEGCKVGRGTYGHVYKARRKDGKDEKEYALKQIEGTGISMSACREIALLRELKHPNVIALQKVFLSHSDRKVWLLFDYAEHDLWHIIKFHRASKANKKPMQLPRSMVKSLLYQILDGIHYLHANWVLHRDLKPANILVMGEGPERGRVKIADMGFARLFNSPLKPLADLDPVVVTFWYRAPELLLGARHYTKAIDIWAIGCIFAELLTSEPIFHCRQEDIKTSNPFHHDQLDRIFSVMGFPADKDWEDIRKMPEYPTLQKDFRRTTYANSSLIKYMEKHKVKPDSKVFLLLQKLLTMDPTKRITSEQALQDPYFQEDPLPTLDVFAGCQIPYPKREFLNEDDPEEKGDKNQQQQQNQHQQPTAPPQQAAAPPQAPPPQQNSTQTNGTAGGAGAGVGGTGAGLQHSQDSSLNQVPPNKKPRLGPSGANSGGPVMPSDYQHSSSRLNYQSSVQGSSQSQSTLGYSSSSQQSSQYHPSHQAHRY
- Sequence (P24863 whole entry partner): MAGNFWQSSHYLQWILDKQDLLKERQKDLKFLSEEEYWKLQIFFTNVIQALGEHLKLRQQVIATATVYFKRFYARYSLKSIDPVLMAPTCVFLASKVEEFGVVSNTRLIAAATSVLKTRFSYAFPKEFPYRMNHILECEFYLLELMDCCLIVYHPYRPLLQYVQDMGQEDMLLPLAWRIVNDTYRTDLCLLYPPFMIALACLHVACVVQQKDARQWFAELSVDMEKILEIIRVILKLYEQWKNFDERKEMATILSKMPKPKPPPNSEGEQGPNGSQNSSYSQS
- Experiment description: NanoBRET live-cell target engagement, NanoLuc-CDK19/Cyclin C in HEK-293
- Measurement context: read-out: CDK19/C Inhibition at 10µM (%), 10µM; average of experiments

- Compound: "CN1CCN(c2ccc(Nc3ncc4cc5n(c4n3)C3(CCCCC3)CNC5=O)nc2)CC1 [Trilaciclib]"
  Units: "%"
  inhibition at 10 µM: 9.4
- Compound: "COCCN1CCN(Cc2ccc(-c3n[nH]c4c3C(=O)c3c(NC(=O)NN5CCOCC5)cccc3-4)cc2)CC1 [RGB286638]"
  Units: "%"
  inhibition at 10 µM: 58
- Compound: "CN(C)C(=O)c1cc2cnc(Nc3ccc(N4CCNCC4)cn3)nc2n1C1CCCC1 [Ribociclib]"
  Units: "%"
  inhibition at 10 µM: 5.4
- Compound: "CN(C)C/C=C/C(=O)Nc1ccc(C(=O)N2CCC[C@@H](Nc3ncc(Cl)c(-c4c[nH]c5ccccc45)n3)C2)cc1 [THZ531]"
  Units: "%"
  inhibition at 10 µM: 55.3

* * *

- Target of assay: CDK6/Cyclin D1 (Homo sapiens)
- Sequence (Q00534 whole entry): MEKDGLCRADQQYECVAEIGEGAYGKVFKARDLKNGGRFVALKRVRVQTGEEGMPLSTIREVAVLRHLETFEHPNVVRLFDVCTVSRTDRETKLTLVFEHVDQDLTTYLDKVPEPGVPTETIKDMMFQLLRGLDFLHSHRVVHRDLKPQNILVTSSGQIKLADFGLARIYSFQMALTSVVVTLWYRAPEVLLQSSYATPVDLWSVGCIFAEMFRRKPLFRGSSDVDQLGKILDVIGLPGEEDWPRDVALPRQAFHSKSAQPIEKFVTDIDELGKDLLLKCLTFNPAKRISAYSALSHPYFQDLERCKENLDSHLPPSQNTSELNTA
- Sequence (P24385 whole entry partner): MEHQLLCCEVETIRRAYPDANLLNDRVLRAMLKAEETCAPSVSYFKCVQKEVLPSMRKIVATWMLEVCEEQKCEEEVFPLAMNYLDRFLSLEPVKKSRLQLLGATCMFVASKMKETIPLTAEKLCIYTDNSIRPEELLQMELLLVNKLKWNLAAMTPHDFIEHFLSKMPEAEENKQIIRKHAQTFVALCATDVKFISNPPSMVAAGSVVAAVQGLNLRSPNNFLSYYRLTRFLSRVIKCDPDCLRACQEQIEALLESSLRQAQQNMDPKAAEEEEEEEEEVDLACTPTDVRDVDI
- Experiment description: NanoBRET live-cell target engagement, NanoLuc-CDK6/Cyclin D1 in HEK-293
- Format: binding
- Measurement context: CDK6/D1; n=3 average ± SEM, n=2 average to 2 significant figures; read-out: IC50 (nM) Average*
Here, each record is paired with measured IC50 data.

- Compound: "CNC1CCN(C(=O)c2ccc(Nc3ncc(F)c(-c4cnc(C)n4C(C)C)n3)cc2)C1 (stereo not shown) [AZD5597]"
  Units: "nM"
  IC50: 8.3
- Compound: "CC(C)c1cnn2c(NCc3ccccc3)cc(N[C@@H](CO)[C@H](O)CO)nc12 [BS-194]"
  Units: "nM"
  IC50: 430
- Compound: "C[C@H]1CC[C@H](n2c3cnccc3c3cnc(Nc4ccc5c(n4)CCN(C(=O)CO)C5)nc32)CC1 [AMG 925]"
  Units: "nM"
  IC50: 7
- Compound: "CCCCOc1c(C(=O)c2c(F)cc(C)cc2F)c[nH]c2nncc1-2 [BMS-265246]"
  Units: "nM"
  IC50: 100

* * *

- Target of assay: CDK5/CDK5R1 (Homo sapiens)
- Sequence (Q00535 whole entry): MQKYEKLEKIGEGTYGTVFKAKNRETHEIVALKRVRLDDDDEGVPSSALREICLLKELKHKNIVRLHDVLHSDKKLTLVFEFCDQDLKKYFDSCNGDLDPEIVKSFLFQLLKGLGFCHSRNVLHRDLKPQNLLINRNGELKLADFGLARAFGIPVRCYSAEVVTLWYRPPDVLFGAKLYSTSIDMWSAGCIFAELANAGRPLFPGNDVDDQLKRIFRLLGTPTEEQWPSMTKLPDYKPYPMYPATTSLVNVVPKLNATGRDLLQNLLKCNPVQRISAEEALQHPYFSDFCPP
- Sequence (Q15078 whole entry partner): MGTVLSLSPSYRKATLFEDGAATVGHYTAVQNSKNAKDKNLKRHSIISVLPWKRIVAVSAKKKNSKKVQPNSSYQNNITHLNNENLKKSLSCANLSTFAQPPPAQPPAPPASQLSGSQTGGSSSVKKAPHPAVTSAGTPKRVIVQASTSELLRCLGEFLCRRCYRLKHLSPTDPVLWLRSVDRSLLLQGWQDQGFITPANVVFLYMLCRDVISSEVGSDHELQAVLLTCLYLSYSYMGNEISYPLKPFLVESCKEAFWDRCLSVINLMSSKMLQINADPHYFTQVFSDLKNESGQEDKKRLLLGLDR
- Experiment description: NanoBRET live-cell target engagement, CDK5-NanoLuc/CDK5R1 in HEK-293
- Format: binding
- Measurement context: 10µM; independent experiment 1
As shown below, each of these molecules has a reported CDK5/CDK5R1 Inhibition at 10µM (%) value.

- Molecule: "CN(C)C/C=C/C(=O)Nc1ccc(C(=O)Nc2cccc(Nc3ncc(Cl)c(-c4c[nH]c5ccccc45)n3)c2)cc1"
  CDK5/CDK5R1 Inhibition at 10µM (%): 19.2
- Molecule: "O=C1NC(=NCc2cccs2)S/C1=C\\c1ccc2ncccc2c1"
  CDK5/CDK5R1 Inhibition at 10µM (%): 10.9
- Molecule: "O=C1NCCc2[nH]c(-c3ccncc3)cc21"
  CDK5/CDK5R1 Inhibition at 10µM (%): 38.6
- Molecule: "Cc1c(Br)c(Br)c2c3c1nc(N1CCNCC1)n3CCC2.Cl [SEL 120-34A]"
  CDK5/CDK5R1 Inhibition at 10µM (%): 31.2
